System: Plasmodium falciparum
Test: GSK_TCMDC: Inhibition of Plasmodium falciparum 3D7 in whole red blood cells, using parasite LDH activity as an index of growth. Test compounds present at 2uM
Format: functional
assay-metric: Inhibition (%)

>>> print(df.to_string())
                                   compound  readout_number
0       COc1ccc(N2C(N)=NC(N)=NC2(C)C)cc1.Cl              94
1  COc1ccc(C2N=C(N)N=C(N)N2c2ccc(Cl)cc2)cc1OC.Cl (stereo not given)              85
2  Cc1ccc2nc3c(cc(C(=O)NCCc4ccccc4)c(=N)n3CCCOC(C)C)c(=O)n2c1              96
3  CC(=O)Nc1nc(C(=O)Nc2ccc(-c3cccc(-c4nc5cc(C(F)(F)F)ccc5[nH]4)c3)cc2)cs1             100
4  O=C(c1ccc(Cl)cc1)N1CCCC(C(=O)N(Cc2nnc(-c3ccccc3Cl)o2)C2CC2)C1 (stereo not given)              95

====

Some compounds, each annotated with its measured Inhibition.
Test system: Plasmodium falciparum
Assay: GSK_TCMDC: Inhibition of Plasmodium falciparum Dd2 in whole red blood cells, using parasite LDH activity as an index of growth. Test compounds present at 2uM
Type: functional
assay-metric: Inhibition (%)

>>> print(df.to_string())
                                    compound  assay_metric  readout_number
 0  COc1ccc([N+](=O)[O-])cc1N(Cc1ccccc1-c1ccccc1)S(=O)(=O)c1ccc(C(F)(F)F)cc1    Inhibition              66
 1  Cc1ccc(C(C)C)c(Oc2cnc(NC(CO)c3ccccc3)nc2N)c1 (stereo not drawn)    Inhibition               0
 2  COc1c(C2CCN(CCCCNC(=O)c3ccc(C)c(-c4ccc(C(F)(F)F)cc4)c3)CC2)ccc2c1CCCC2    Inhibition              79
 3  CCCCCN1CCCC(CNS(=O)(=O)c2ccc(C(=O)Nc3ccc(C(F)(F)F)cc3)cc2)C1.O=C(O)C(F)(F)F (stereo not drawn)    Inhibition               0
 4  Cn1c(Nc2cc(C(C)(C)C)on2)nc2cc(Nc3ccnc(Nc4ccc(CS(C)(=O)=O)cc4)n3)ccc21    Inhibition              68
 5  CCOc1cc2ncnc(Nc3ccc(OCc4ccccc4Br)c(OC)c3)c2cc1OCC.Cl    Inhibition              82
 6  O=C(CCc1c[nH]cn1)Nc1ccc(-c2ccc(-c3nc4ccccc4[nH]3)cc2)cc1    Inhibition              70
 7  O=C(Nc1cccc(F)c1)N1CCC(NS(=O)(=O)c2ccc(Br)cc2)CC1    Inhibition              23
 8       Nc1cc(-c2ccc(-c3cccs3)s2)nc2ccccc12    Inhibition              50
 9  CCCCCN1CCCN(Cc2cccc(NC(=O)c3ccc(Cl)c(Cl)c3)c2)CC1.O=C(O)C(F)(F)F    Inhibition              28
10  O=C(Cc1ccccc1)NC(c1ccccc1)c1ccc2cccnc2c1O (stereo not drawn)    Inhibition              61
11  Cc1ccc(C(=O)Nc2ccc(F)c(F)c2F)cc1S(=O)(=O)N1CCCCC1    Inhibition              69
12  Cc1cccc2nc(-c3ccc(-c4cccc(NC(=O)Nc5cccc(C#N)c5)c4)cc3)[nH]c12    Inhibition              86

====

Tested on: HepG2
Assay: GSK_TCMDC: Percent inhibition of human HepG2 cell line. Test compounds present at 10uM.
Type: functional
Is Inhibition at least 20%? Then met. If not, not met.

In [3]: df
Out[3]:
                                   compound    label
0  CCCCn1c(SC(C)C)nc2c(c1=O)C1(CCCCC1)Cc1ccccc1-2  not met
1  COc1c(C2CCN(CCCCNC(=O)C=Cc3cc4cc(Cl)ccc4o3)CC2)ccc2c1CCCC2      met
2  Cc1cc2c(/C=C/C(=O)NC3CCC(CCN4CCc5ccc(C#N)cc5CC4)CC3)cccc2[nH]1.Cl (stereo unspecified)  not met
3  NC(=O)c1cccc(C(=O)Nc2ccc(-c3cccc(-c4nc5cc(F)ccc5[nH]4)c3)cc2)c1      met
4  CC(=O)Nc1ccc(C(=O)Nc2cccc(-c3cccc(-c4nc5ccccc5[nH]4)c3)c2)cn1  not met
5  COc1cc2nccc(Nc3ccc(OCc4ccc(NC(C)=O)cc4)cc3)c2cc1OC.Cl      met

====

System: HepG2
Assay: GSK_TCMDC: Percent inhibition of human HepG2 cell line. Test compounds present at 10uM.
Assay type: functional
assay-metric: Inhibition (%)

>>> df
                                   compound  readout_number
0  CC(C)CNCc1cccc(-c2ccc(CNc3ccc4ncccc4c3)cc2)c1.O=C(O)C(F)(F)F              13
1  Cn1cc(C(=O)Nc2cccc(-c3cccc(-c4nc5cc(F)ccc5[nH]4)c3)c2)n(C)c1=O              15
2  O=C(O)C(F)(F)F.O=C1CCCN1CCCNCc1ccc(-c2cccc(-c3nc4cc(C(F)(F)F)ccc4[nH]3)c2)cc1              14
3  O=C(NCCCCN1CCN(c2cccc3c2OCCO3)CC1)c1ccc(NC(=O)c2cc(Cl)cc(Cl)c2)cc1              21
4  O=C(c1cccc(-c2cccc(-c3nc4cc(F)ccc4[nH]3)c2)c1)N1CCCCC1CN1CCC(O)C1 (configuration not stated)              36
5  c1ccc2[nH]c(-c3ccc(-c4ccc(CN5CCCCC5)cc4)s3)nc2c1              41
6  O=C(Nc1ccc(OC2CCN(Cc3ccc(F)cc3)CC2)c(Cl)c1)c1ccccc1.O=C(O)C(F)(F)F              16

====

Tested on: Plasmodium falciparum
Assay: GSK_TCMDC: Inhibition of Plasmodium falciparum 3D7 in whole red blood cells, using parasite LDH activity as an index of growth. Test compounds present at 2uM
Assay type: functional
Some compounds, each annotated with its measured Inhibition.
assay-metric: Inhibition (%)

                                   compound  units_text  readout_number
0   CCCCN(CCCC)CCCCNc1c2ccccc2nc2ccccc12.Cl           %             100
1  O=C(NCc1ccc2c(c1)OCO2)c1nn(CCN2CCC(N3CCCC3)CC2)cc1-c1ccc(Cl)c(Cl)c1           %              94
2  CO/C(=C\C=C\c1cc2cc(Cl)c(Cl)cc2[nH]1)C(=O)NCCCN1CCCC[C@H]1C           %             100
3  CCCC(C)NC(=O)/C=C/c1ccccc1-c1cccc(OC)c1 (stereo not given)           %              87
4  Cc1cc2c(cc1C(F)(F)F)N(C(=O)Nc1cc(C(=O)NCCN(C)C)cc(C(F)(F)F)c1)CC2           %             100

====

Test system: Plasmodium falciparum
Experiment: GSK_TCMDC: Inhibition of Plasmodium falciparum 3D7 in whole red blood cells, using parasite LDH activity as an index of growth. Test compounds present at 2uM
Assay type: functional
Some molecules, each annotated with its measured Inhibition.
assay-metric: Inhibition (%)

                                   molecule  assay_metric  readout_number
0  CN(C)CC(=O)Nc1cccc(Nc2nccc(NCC(O)c3ccccc3)n2)c1 (stereo not drawn)    Inhibition             100
1  CCOC(=O)c1ccc(NC(=O)Nc2ccc(-c3ccc(-c4nc5cccc(C)c5[nH]4)s3)cc2)cc1    Inhibition             100
2                        CCOc1cc[nH]c(=O)n1    Inhibition              97

====

Tested on: HepG2
Experiment: GSK_TCMDC: Percent inhibition of human HepG2 cell line. Test compounds present at 10uM.
Format: functional
Decision: Inhibition beneath 10% gives Fulfilled; Inhibition meeting or exceeding 10% gives Not fulfilled.

>>> df
                                    compound          label
 0  COc1ccccc1C1CCN(C2CCC(NC(=O)/C=C/c3cccc(Cl)c3)CC2)CC1 (centres undefined)  Not fulfilled
 1  COc1ccc(-c2cccc(CNCc3ccc(F)cc3)c2)cc1S(=O)(=O)NCCN1CCCC1.O=C(O)C(F)(F)F  Not fulfilled
 2  CC(CN(C)C)C(=O)Nc1ccc(-c2ccc(-c3nc4ccccc4[nH]3)s2)cc1 (centres undefined)  Not fulfilled
 3  CS(=O)(=O)N(c1cccc(F)c1)c1cc(C(=O)N[C@@H](Cc2ccccc2)[C@H](O)CNCc2cccc(C(F)(F)F)c2)cc(N2CCCC2=O)c1.O=CO  Not fulfilled
 4  c1ccc2[nH]c(-c3ccc(-c4ccc(CN5CCN(c6ccncc6)CC5)cc4)s3)nc2c1  Not fulfilled
 5  CCOc1ccc(NC(=O)c2ccc(NCCCN3CC(C)CC(C)C3)c([N+](=O)[O-])c2)cc1 (centres undefined)      Fulfilled
 6  Cc1cccc2nc(-c3ccc(-c4ccc(CN5CCCCC5)cc4)s3)[nH]c12.O=C(O)C(F)(F)F  Not fulfilled
 7  Cl.Fc1cccc(COc2ccc(Nc3ncnc4ccc(-c5nnc(C(F)(F)F)o5)cc34)cc2Cl)c1  Not fulfilled
 8  O=C(O[C@@H]1CN[C@H](C#Cc2cc3ncnc(Nc4ccc5c(cnn5Cc5cccc(F)c5)c4)c3s2)C1)N1CCCC1      Fulfilled
 9  Cn1nccc1C(=O)NCCNCc1cccc(-c2csc(-c3nc4ccccc4[nH]3)c2)c1.O=C(O)C(F)(F)F  Not fulfilled
10  CC(C)CNCc1cccc(-c2cccc(CN(CCCN3CCN(C)CC3)C(=O)CCC3CCCC3)c2)c1.O=C(O)C(F)(F)F  Not fulfilled
11  CN1CCCN(Cc2ccc(-c3ccc(NS(=O)(=O)c4cccc5cccnc45)cc3)cc2)CC1.O=C(O)C(F)(F)F  Not fulfilled
12  N#Cc1ccc2[nH]cc(-c3cn4cc(SC5CCCC5)ccc4n3)c2c1      Fulfilled
13  C=C(F)c1sc(CNCCCNc2nc3ccccc3[nH]2)c(C)c1Br  Not fulfilled
